System: HCC1599
Test: normalised viability (% of control), CellTiter-Blue; higher = more viable cells (about 100 = DMSO control)
Details: 100 nM; incubation time: 72 h
readout.kind: normalised viability (%)
Hi! Could you send only the number? It should be in %, unit omitted.

// solved cases for normalised viability follow
O=C(Nc1ccncc1)C(=O)c1cn(Cc2ccc(Cl)cc2)c2ccccc12 [Indibulin] ... 146
N#Cc1ccc(COC[C@H]2O[C@@H](n3c(NCc4ccc(Cl)c(Cl)c4)nc4c(N)ncnc43)[C@H](O)[C@@H]2O)cc1 ... 97.1
COCC[n+]1c2c(n(Cc3cnccn3)c1C)C(=O)c1ccccc1C2=O [YM155] ... 10
COc1cc(OC2CCN(C)CC2)ccc1Nc1ncc2c(n1)n(C1CCCC1)c(=O)n2C [AZ 3146] ... 90.1

Retrieve normalised viability measured for Cc1cc(Nc2cc(CN3CCOCC3)c3nc(C)c(Cc4ccc(Cl)cc4F)n3n2)n[nH]1 and print it.
122

Given O=C(Nc1cccnc1)N1CCC(Cc2cccc(Oc3ccc(C(F)(F)F)cn3)c2)CC1 [PF-3845] , respond with its normalised viability.
99.6

Kindly indicate its recorded normalised viability. Item: COC(=O)c1ccc2c(c1)NC(=O)/C2=C(\Nc1ccc(N(C)C(=O)CN2CCN(C)CC2)cc1)c1ccccc1 [BIBF 1120]
91.3

Dear colleague, please send me the reported normalised viability for O=C(/C=C/c1cccc(S(=O)(=O)Nc2ccccc2)c1)NO [Belinostat] when you can.
82.8

----------
Test system: MDA-MB-468
Experiment: drug sensitivity score (DSS), CellTiter-Blue viability (DSS (AUC-based score)); higher = stronger viability inhibition; extreme values may be limits of the assay
Conditions: incubation time: 72 h
Reported drug sensitivity score by item:
Respond numerically, and do not add a unit to the figure.

c1ccc2c(CCNc3ccc(Nc4ccncc4)cc3)c[nH]c2c1 ... 0

Give the measured drug sensitivity score for C=C1C[C@@H]2[C@H](CC[C@]3(C)C(=O)CC[C@@H]23)[C@@]2(C)C=CC(=O)C=C12
0

// fetch drug sensitivity score given entry Cc1[nH]c2ccccc2c1CCNCc1ccc(/C=C/C(=O)NO)cc1
11.3

Please give the documented drug sensitivity score of N#Cc1ccc(COC[C@H]2O[C@@H](n3c(NCc4ccc(Cl)c(Cl)c4)nc4c(N)ncnc43)[C@H](O)[C@@H]2O)cc1
1.65

----------
System: BT-549
Experiment: normalised response (% of control), CellTiter-Glo; higher = more viable cells (100 = DMSO, 0 = benzethonium chloride kill control)
Conditions: incubation time: 72 h
Parameter normalised response: see the listing below.
State just the number; it will be interpreted in %.

Worked set:
Oc1ccc2c(c1)CC[C@H](c1ccccc1)[C@@H]2c1ccc(OCCN2CCCC2)cc1 [Lasofoxifene] (0.1 nM) ... 97.1
CCn1c(-c2nonc2N)nc2cnc(Oc3cccc(NC(=O)c4ccc(OCCN5CCOCC5)cc4)c3)cc21 (10 nM) ... 97.3
O=C(/C=C/c1cccc(S(=O)(=O)Nc2ccccc2)c1)NO [Belinostat] (10 nM) ... 101
Cc1cc(Nc2cc(CN3CCOCC3)c3nc(C)c(Cc4ccc(Cl)cc4F)n3n2)n[nH]1 [Gandotinib] (1000 nM) ... 77
NC(=O)c1ccc(I)c([N+](=O)[O-])c1 [Iniparib] (1000 nM) ... 101

Quickly give me recorded normalised response for COc1cc2ncnc(Nc3ccc(F)c(Cl)c3)c2cc1OCCCN1CCOCC1 [Gefitinib] (1 nM)
94.8

Give normalised response for the following compound: COCC[n+]1c2c(n(Cc3cnccn3)c1C)C(=O)c1ccccc1C2=O [YM155] (1000 nM)
-0.05

Retrieve normalised response measured for C=C1C[C@@H]2[C@H](CC[C@]3(C)C(=O)CC[C@@H]23)[C@@]2(C)C=CC(=O)C=C12 [Exemestane] (1000 nM) and print it.
92.5

For COc1cc2c(NC3CCN(C(C)C)CC3)nc(N3CCC(F)(F)CC3)nc2cc1OCCCN1CCCC1 [UNC0642] (10 nM) , write its normalised response.
97.7

Kindly indicate its recorded normalised response. Item: O=P1(N(CCCl)CCCl)NCCCO1 (stereo unspecified) [Cyclophosphamide] (40 nM)
97.9

Output normalised response of c1ccc2c(CCNc3ccc(Nc4ccncc4)cc3)c[nH]c2c1 [Serdemetan] (10 nM)
105

Look up and state reported normalised response for COCC1(CO)C(=O)C2CCN1CC2 (stereo unspecified) [Prima-1 Met] (1000 nM)
96.8

Using the record for O=C(Nc1cccnc1)N1CCC(Cc2cccc(Oc3ccc(C(F)(F)F)cn3)c2)CC1 [PF-3845] (1 nM) , state its measured normalised response.
107

// Input: Oc1ccc2c(c1)CC[C@H](c1ccccc1)[C@@H]2c1ccc(OCCN2CCCC2)cc1 [Lasofoxifene] (100 nM) . Output its normalised response only.
95.8

Name the recorded normalised response of the item CNC(=O)c1cccc(-c2ccc3c(N4CCOC[C@@H]4C)nc(N4CCOC[C@@H]4C)nc3n2)c1 [AZD2014] (10 nM) in your answer.
96.8

Annotate the compound CNC(=O)c1cccc(-c2ccc3c(N4CCOC[C@@H]4C)nc(N4CCOC[C@@H]4C)nc3n2)c1 [AZD2014] (1 nM) with its measured normalised response.
102

----------
Test system: BT-474
Experiment: normalised response (% of control), CellTox Green; higher = less cell death (100 = DMSO, 0 = benzethonium chloride kill control)
Conditions: incubation time: 72 h
Reported normalised response values for a set of compounds
// return numeric value only (unit: %, not printed)

O=C(Nc1cccnc1)N1CCC(Cc2cccc(Oc3ccc(C(F)(F)F)cn3)c2)CC1 [PF-3845] (1000 nM) ... 102
CN(C)CCOc1ccc(/C(=C(/CCCl)c2ccccc2)c2ccccc2)cc1 [Toremifene] (100 nM) ... 101
Cc1cc(Nc2cc(CN3CCOCC3)c3nc(C)c(Cc4ccc(Cl)cc4F)n3n2)n[nH]1 [Gandotinib] (100 nM) ... 100

// moving on: another record for normalised response
Supply reported normalised response belonging to this compound: COCC1(CO)C(=O)C2CCN1CC2 (centres undefined) [Prima-1 Met] (100 nM)
101

----------
# reported normalised response; entries follow
Test system: HCC1599
Assay: normalised response (% of control), CellTiter-Glo; higher = more viable cells (100 = DMSO, 0 = benzethonium chloride kill control)
Conditions: incubation time: 72 h
Could you give me the number in %? Just the number is fine.

The cases that follow already have their normalised response on record.
CNC(=O)c1cccc(-c2ccc3c(N4CCOC[C@@H]4C)nc(N4CCOC[C@@H]4C)nc3n2)c1 [AZD2014] (1 nM) ... 92
COc1cc(OC2CCN(C)CC2)ccc1Nc1ncc2c(n1)n(C1CCCC1)c(=O)n2C [AZ 3146] (1000 nM) ... 112
COC(=O)c1ccc2c(c1)NC(=O)/C2=C(\Nc1ccc(N(C)C(=O)CN2CCN(C)CC2)cc1)c1ccccc1 [Nintedanib] (1000 nM) ... 98.9

Please look at this compound and report its normalised response: S=P(N1CC1)(N1CC1)N1CC1 [Thio-TEPA] (5000 nM)
112

----------
Reported normalised response by item:
System: CAL-148
Test: normalised response (% of control), CellTiter-Glo; higher = more viable cells (100 = DMSO, 0 = benzethonium chloride kill control)
Conditions: incubation time: 72 h
Quick reminder: number only, in %, skip the unit.

COc1cc2ncnc(Nc3ccc(F)c(Cl)c3)c2cc1OCCCN1CCOCC1 [Gefitinib] (1 nM) ... 107
CN(C)c1nc(N(C)C)nc(N(C)C)n1 [Altretamine] (1 nM) ... 96.5

Now look at this one.
Please report the measured normalised response for O=C(Nc1cccnc1)N1CCC(Cc2cccc(Oc3ccc(C(F)(F)F)cn3)c2)CC1 [PF-3845] (1000 nM) tested on CAL-148.
99.4

----------
Entries annotated with measured normalised response
Test system: CAL-51
Test: normalised response (% of control), CellTiter-Glo; higher = more viable cells (100 = DMSO, 0 = benzethonium chloride kill control)
Conditions: incubation time: 72 h
Use % as the unit, but write only the number.

O=C(Nc1ccncc1)C(=O)c1cn(Cc2ccc(Cl)cc2)c2ccccc12 [Indibulin] (10000 nM) ... 18.4
Oc1ccc2c(c1)CC[C@H](c1ccccc1)[C@@H]2c1ccc(OCCN2CCCC2)cc1 [Lasofoxifene] (1000 nM) ... 78.9
NC(=O)c1ccc(I)c([N+](=O)[O-])c1 [Iniparib] (10000 nM) ... 84.7
O=C(/C=C/c1cccc(S(=O)(=O)Nc2ccccc2)c1)NO [Belinostat] (10000 nM) ... 44.5
COc1cc2ncnc(Nc3ccc(F)c(Cl)c3)c2cc1OCCCN1CCOCC1 [Gefitinib] (10000 nM) ... 100
CCOC(=O)CCNc1cc(N2CCc3ccccc3CC2)nc(-c2ccccn2)n1 [GSK-J4] (100000 nM) ... 0.09
CNC(=O)c1ccc(N2C(=S)N(c3ccc(C#N)c(C(F)(F)F)c3)C(=O)C2(C)C)cc1F [Enzalutamide] (10000 nM) ... 80.3
Cc1cc(Nc2cc(CN3CCOCC3)c3nc(C)c(Cc4ccc(Cl)cc4F)n3n2)n[nH]1 [Gandotinib] (10000 nM) ... 26

Determine its reported normalised response: O=P1(N(CCCl)CCCl)NCCCO1 (stereo unspecified) [Cyclophosphamide] (40000 nM)
131

Give reported normalised response value for CNC(=O)c1cc(Oc2ccc(NC(=O)Nc3ccc(Cl)c(C(F)(F)F)c3)c(F)c2)ccn1 [Regorafenib] (10000 nM)
73.8

Give normalised response for the following compound: Cc1ccc(NC(=O)c2ccc(CN3CCN(C)CC3)cc2)cc1Nc1nc(-c2cccnc2)cs1 [Masitinib] (10000 nM)
59.1
